Recorded values, source patent US8883792B2.

For each record, write down the corresponding inhibition in vivo at 10 mg/kg.
# Test system: spontaneously hypertensive rats (SHR/Izm)
# experimental.protocol: Blood pressure lowering effect in spontaneously hypertensive rats
# Type: in vivo
# condition.info: Rattus norvegicus, ip, male SHR/Izm rats, intraperitoneal, measured over time, read-out: lowered the systolic blood pressures by up to, compared with the value before administration
Counter-ions that a name gives are not always drawn.

Which measured inhibition in vivo at 10 mg/kg belongs to C[C@H](CNC[C@@H](O)c1ccc(F)cc1)NS(=O)(=O)c1ccc2cnccc2c1.Cl [Example 84, hydrochloride] , tested on spontaneously hypertensive rats (SHR/Izm)? ≤ 20%

Which measured inhibition in vivo at 10 mg/kg belongs to C[C@H](CNCCc1ccccc1)NS(=O)(=O)c1ccc2cnccc2c1 [Example 23, dihydrochloride] , tested on spontaneously hypertensive rats (SHR/Izm)? ≥ 30%

Which measured inhibition in vivo at 10 mg/kg belongs to Cc1ccc(CCNC[C@@H](C)NS(=O)(=O)c2ccc3cnccc3c2)cc1.Cl [Example 58, hydrochloride] , tested on spontaneously hypertensive rats (SHR/Izm)? ≥ 30%

Which measured inhibition in vivo at 10 mg/kg belongs to C[C@H](CNCCCCc1ccccc1)NS(=O)(=O)c1ccc2cnccc2c1 [Example 35, dihydrochloride] , tested on spontaneously hypertensive rats (SHR/Izm)? ≤ 20%

Which measured inhibition in vivo at 10 mg/kg belongs to C[C@H](CNC[C@H](C)c1ccccc1)NS(=O)(=O)c1ccc2cnccc2c1 [Example 25, dihydrochloride] , tested on spontaneously hypertensive rats (SHR/Izm)? ≥ 30%
